Quick reference: IC50 of the listed items.
tested on: human lymphoblastic leukemia (CCRF-CEM); experiment: In vitro cytotoxicity, XTT assay, CCRF-CEM; assay type: cell-based; conditions: Table 7, 72 h, read-out: IC50 (μM) CCRF/CEM
Attribute measured: IC50 (µM)

                                   compound  attribute_measured  value
0  CC(C)NC(=O)OCc1c(COC(=O)NC(C)C)c2n(c1-c1ccc(F)cc1)CC(C)c1c-2[nH]c2ccccc12 (stereo not drawn) [Compound 28c]                IC50  0.106
1  CC(C)NC(=O)OCc1c(COC(=O)NC(C)C)c(-c2ccc(Cl)cc2)n2c1Cc1c(n(C)c3ccccc13)C2 [Compound 28d]                IC50  0.437
2  CCNC(=O)OCc1c(COC(=O)NCC)c(-c2ccc(Cl)cc2)n2c1Cc1c(n(C)c3ccccc13)C2 [Compound 27d]                IC50   0.35
